target: native soluble IL-6R in human plasma (human, UniProt P08887); experiment: ELISA 3, periplasmic extract; competitor BN-12; human plasma
measurement_kind: OD450 ratio sample/blank

IL6RPMP104E7 (VHH) VHH: EVQLVESGGGLVQAGGSLRLSCAAGGSIFSINAMGWYRQAPGKQRELVASITSGGSTTYADSVKGRFTISRDNAKDTVYLQMNSLKPEDTAVYYCNAHIRFPFPNDYWGQGTQVTVSS    1.01
IL6RPMP102G3 (VHH) VHH: EVQLVESGGGLVQAGGSLRLSCAASGSIDRINAMGWYRQAPGKQRDFLAVITDGDKTLYADSVKGRFTISNDNAKNTVYLQMNSLKPEDTAVYYCNAYQAGWGDYWGQGTQVTVSS    0.968
IL6RPMP101C3 (VHH) VHH: EVQLVESGGGLVRAGGSLRLSCAASGFAFDDYAIGWFRQAPGKEREGVSSISSSNGNTYYADSVRGRFTISSDNAKNTVYLQMNSLKPEDTGVYYCAAIWGIFFNEKMPVGAYDYWGQGTQVTVSS    0.975
IL6RPMP103C7 (VHH) VHH: EVQLVESGGGLVQAGGSLSLSCATSGRTISDDTMAWFRQAPGKEREFVATITFSGARTHYSDSVRDRFTISRDNAKNTVYLQMDSLKSEDTAVYYCAASTKYYSSTYNYIHPAFYDIWGQGTQVTVSS    0.948
IL6RPMP100G11 (VHH) VHH: EVQLVESGGGLVQAGGSLRLSCAASGRGFSPYTMGWFRQAPGKERVFVAGISWSTGIAHYTDSVKGRFTISRDNAKNTGSLQMNSLKPEDTAVYYCAVVQTTKGNYDYWGQGTQVTVSS    0.997
IL6RPMP101E1 (VHH) VHH: EVQLVESGGGLVQAGGSLRLSCAASGFAFDDYAIGWFRQAPGKEREGVSSISSSNGNTYYADSVRGRFTISSDNAKNTVYLQMNSLKPEDTGVYYCAAIWGIFFNEKMPVGAYDYWGQGTQVTVSS    0.947
IL6RPMP120B7 (VHH) VHH: EVQLVESGGGLVQAGGSLSLSCATSGRTISDDTMAWFRQAPGKEREFVATITFSGARTHYSDSVRDRFTISRDNAKNTVYLQMNSLKSEDTAVYYCAASTKYYSSTYNYIHPAFYDIWGQGTQVTVSS    1.03
IL6RPMP120B2 (VHH) VHH: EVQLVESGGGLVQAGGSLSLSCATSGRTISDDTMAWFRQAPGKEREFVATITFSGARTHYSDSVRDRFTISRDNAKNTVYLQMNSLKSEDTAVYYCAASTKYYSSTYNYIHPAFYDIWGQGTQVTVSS    1.02
